- TEST SETTINGS: buffer; pH 7.4; 200.0 µM
OBSERVABLE: log10(solubility kinetic) (log10 of the value in µg/mL)
Recall that a logarithmic scale is used here: each number is log10 of solubility kinetic in µg/mL.

Can you share its log10(solubility kinetic)? I mean this compound: CCOc1ccc2oc(C(=O)NC(C)(C)CC)c(C)c2c1
1.06

Also, CCOC(=O)C1CCN(C(=O)c2cc3cc(F)ccc3[nH]2)CC1 please.
1.51

Item: CCOC(=O)c1ccc(NCCOC)c([N+](=O)[O-])c1
1.52

Thanks! And COc1ccc(NC(=O)COC(=O)CCc2ccc(S(=O)(=O)N3CCOCC3)cc2)cc1OC ?
1.79

Please do the same for COc1cc(C(=O)Nc2nc(C)cc(C)n2)cc(OC)c1OC as well.
1.66

Try this compound next: COc1ccc(N2C(=O)C3C(C2=O)C3(c2ccccc2)c2ccccc2)cc1 (stereo not given)
-0.05

Here is the next compound: Cc1ccc(C)c(OCCC(=O)Nc2cc(S(=O)(=O)N3CCCCC3)ccc2C)c1
0.38

Continue with COc1ccc2nc(S(=O)Cc3ncc(C)c(OC)c3C)[nH]c2c1 (stereo not given)
1.55

Further, for Oc1ccc2ccccc2c1CN1CCN(C/C=C/c2ccccc2)CC1 ?
1.00

Entry to check: COc1ccc(-c2csc(C)n2)cc1Br
1.17

And then CN(C)C(CNc1ncccn1)c1ccccc1 (stereo not given) , what is it?
1.51

Same question for Cc1ccccc1Nc1c(-c2cccnc2)nc2ccccn12 please.
1.25

Same thing, different compound: CC1CCN(CCC(=O)Nc2nccs2)CC1
1.53

Follow-up entry: O=C(Oc1ccc(F)cc1)c1cccnc1
1.43

The reported numbers originate from PubChem BioAssay AID1996.
